Could you please report measured percent of parent for the items listed next?
# Substrate: FN-B, recombinant human fibronectin extra domain B (EDB) as a single domain
# Sequence (chain, as listed by the source): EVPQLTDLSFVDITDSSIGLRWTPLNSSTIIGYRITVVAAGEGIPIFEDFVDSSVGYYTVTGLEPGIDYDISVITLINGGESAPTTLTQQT
# Experimental Protocol: ELISA
# Condition Parameters: chain shown with the change; pre-coated human FN-B; detection with HRP-conjugated anti-S-tag antibody; parent: est. 100; read off a plot
Quick reminder: number only, in %, skip the unit.

Look up and report measured percent of parent for this entry: PACTQRKNRIRLCRRDSDCTGACICRGNGYCG [Trx-MC-FN-010, Thioredoxin-A fusion of cystine-knot miniprotein MC-FN-010 M2A]
100

Look up and report measured percent of parent for this entry: PMCTQAKNRIRLCRRDSDCTGACICRGNGYCG [Trx-MC-FN-010, Thioredoxin-A fusion of cystine-knot miniprotein MC-FN-010 R6A]
83

Look up and report measured percent of parent for this entry: PMCTARKNRIRLCRRDSDCTGACICRGNGYCG [Trx-MC-FN-010, Thioredoxin-A fusion of cystine-knot miniprotein MC-FN-010 Q5A]
65
